# study-system: Replicase polyprotein 1ab (Severe acute respiratory syndrome coronavirus 2, UniProt P0DTD1)
pKi: −log10 of the molar value.
readout-label: pKi

>>> df
                                   compound  readout_value
0  COc1cc(-c2cccc3[nH]ncc23)cc(CO)c1OCC(=O)N1CCC(Oc2cccc(C(=O)N(C)C)c2)C1 (stereo unspecified) [CDD-1714]           7.62
